measured_on: T1, 4H3381-bA
T1 chain: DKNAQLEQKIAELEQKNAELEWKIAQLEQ
assay_protocol: two-hybrid library CCNG1;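 further: natural log of median RNA to DNA barcode read ratio; higher means stronger binding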
reported_endpoint: interaction score
Lab note: jot the number down without any unit.

Any idea what interaction score was measured for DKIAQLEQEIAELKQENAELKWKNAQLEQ [4H2143-bA] ? -0.302

Any idea what interaction score was measured for DKIAQLEQKNAELEQEIAELKWENAQLKQ [4H2444-bA] ? -0.537

Any idea what interaction score was measured for DKIAQLKQKIAELEQKIAELKWENAQLEQ [4H2859-bA] ? -1.02

Any idea what interaction score was measured for DKIAQLKQENAELKQEIAELEWKNAQLKQ [4H2760-bA] ? -0.726

Any idea what interaction score was measured for DKIAQLKQKNAELKQKIAELEWEIAQLEQ [4H3041-bA] ? -1.17

Any idea what interaction score was measured for DEIAQLEQENAELEQKIAELEWKIAQLKQ [4H166-bA] ? 0.0741

Any idea what interaction score was measured for DKIAQLEQKNAELKQENAELEWKIAQLKQ [4H2518-bA] ? -0.773

Any idea what interaction score was measured for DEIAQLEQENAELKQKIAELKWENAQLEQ [4H235-bA] ? -0.985

Any idea what interaction score was measured for DKNAQLEQKIAELEQKNAELEWKIAQLEQ [4H3381-bA] ? 0.241

Any idea what interaction score was measured for DEIAQLEQKIAELEQEIAELEWKNAQLKQ [4H264-bA] ? 0.311

Any idea what interaction score was measured for DKIAQLEQEIAELKQKNAELEWEIAQLKQ [4H2162-bA] ? -1.2

Any idea what interaction score was measured for DKNAQLEQKIAELEQKIAELEWENAQLKQ [4H3364-bA] ? -0.647

Any idea what interaction score was measured for DKNAQLEQENAELKQKIAELEWEIAQLEQ [4H3297-bA] ? -0.995

Any idea what interaction score was measured for DKIAQLEQENAELKQEIAELKWKIAQLEQ [4H2253-bA] ? -0.743
